Target Desc: T1, histidine-tagged human SIRPA v1 (Novoprotein) (human, UniProt P78324 31-370, limits assumed)
T1 construct: bought, soluble; also called huSIRPA; soluble huSIRPA; not shown: histidine tag
T1 sequence (P78324 31-370 limits assumed): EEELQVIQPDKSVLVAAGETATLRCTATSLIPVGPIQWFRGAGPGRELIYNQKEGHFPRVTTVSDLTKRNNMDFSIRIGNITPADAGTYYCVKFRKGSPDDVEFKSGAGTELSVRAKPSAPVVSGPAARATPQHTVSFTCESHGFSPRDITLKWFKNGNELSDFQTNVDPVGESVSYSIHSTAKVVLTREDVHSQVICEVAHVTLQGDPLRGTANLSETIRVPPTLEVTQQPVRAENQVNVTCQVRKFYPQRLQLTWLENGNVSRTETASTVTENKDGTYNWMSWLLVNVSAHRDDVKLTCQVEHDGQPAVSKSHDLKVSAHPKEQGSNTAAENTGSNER
Experiment Description: BLI (Octet)
Value Kind: fold increase in affinity relative to parental h3F9

Example entries and their recorded answers appear below.
3F9-20 (antibody, human IgG1, V domains shown, also called mAb 3F9-20) VH: EVQLLESGGGLVQPGGSLRLSCAASGFTFSSYAMSWVRQAPGKGLEWVATISEYGGSYTYYAESVKGRFTISRDNSKNTLYLQMNSLRAEDTAVYYCARPPYDDYYGGFQYWGQGTLVTVSS VL: DIQLTQSPSSLSASVGDRVTITCRASKSVSSGGYSYMHWYQQKPGKAPKLLIYLASNLESGVPSRFSGSGSGTDFTLTISSVQPEDFATYYCQHNRELPPTFGQGTKLEIK    ~10 fold
3F9-18 (antibody, human IgG1, V domains shown, also called mAb 3F9-18) VH: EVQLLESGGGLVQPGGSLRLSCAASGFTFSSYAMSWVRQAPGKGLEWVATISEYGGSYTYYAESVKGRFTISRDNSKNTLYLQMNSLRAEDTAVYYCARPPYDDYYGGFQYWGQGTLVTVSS VL: DIQLTQSPSSLSASVGDRVTITCRASKSVSSGGYSYMHWYQQKPGKAPKLLIYLASNLESGVPSRFSGSGSGTDFTLTISSVQPEDFATYYCQHNRELPSTFGQGTKLEIK    ~10 fold

Moving on to another binder below.
Please fill in: fold increase in affinity relative to parental h3F9 reported for 3F9-23 (antibody, human IgG1, V domains shown, also called mAb 3F9-23) VH: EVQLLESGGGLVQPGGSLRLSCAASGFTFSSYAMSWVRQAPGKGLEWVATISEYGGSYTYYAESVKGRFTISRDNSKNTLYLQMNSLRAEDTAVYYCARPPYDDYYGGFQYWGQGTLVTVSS VL: DIQLTQSPSSLSASVGDRVTITCRASKSVSSGGYSYMHWYQQKPGKAPKLLIYLASNLESGVPSRFSGSGSGTDFTLTISSVQPEDFATYYCQHNRELPATFGQGTKLEIK = ~10 fold
